B1: CPEB3 Ribozyme (parent)
chain: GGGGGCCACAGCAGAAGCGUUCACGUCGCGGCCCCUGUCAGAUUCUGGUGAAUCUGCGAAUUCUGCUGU

- Variants of: B1
- measurementDescription: self-cleavage, relative activity (ratio to wild type); higher = more cleavage; co-transcriptional
measuredAttribute: self-cleavage
Give the figure by itself; no unit, no explanation.

A8C G25C; 0.113

stdin: Quick one: self-cleavage for C54U U62G ?
stdout: 0.951

stdin: Quick one: self-cleavage for C39A C63G ?
stdout: 0.407

stdin: Recorded self-cleavage of U36A U69A , please.
stdout: 0.377

stdin: Look up self-cleavage: C45A U53A
stdout: 0.87

stdin: Given the entry G19C U55A , report its measured self-cleavage.
stdout: 0.132

stdin: Any idea what self-cleavage was measured for U21C C29U ?
stdout: 0.217

stdin: Using the record for A16U C34G , report its self-cleavage.
stdout: 0.353

stdin: Look up self-cleavage: G17C G68C
stdout: 0.242

stdin: Name the recorded self-cleavage for C7A U69A .
stdout: 0.875

stdin: Consider the variant shown here: C39G G56A What is its recorded self-cleavage?
stdout: 0.882

stdin: Give its self-cleavage value. Item: G48U U67A
stdout: 1.01

stdin: GET /values?readout=self-cleavage&item= U21C A60U
stdout: 0.391

stdin: What measured self-cleavage goes with C35A U64A ?
stdout: 0.205

stdin: Item U36G U64G has what recorded self-cleavage?
stdout: 0.195

stdin: What value of self-cleavage has been recorded for this entry: C33U A52C
stdout: 0.978

stdin: For the variant shown here, G14A U36A , give the reported self-cleavage.
stdout: 0.0973

stdin: // returns reported self-cleavage for input A59G U61C
stdout: 0.785

stdin: # input variant: G1U G56U ; wanted: its self-cleavage
stdout: 0.108

stdin: Need self-cleavage of C54G G65A , thanks.
stdout: 0.663

stdin: Look at this variant and give its reported self-cleavage. G37C G58C
stdout: 0.277

stdin: Given G19A A23C , state its recorded self-cleavage.
stdout: 0.25

stdin: So what's the measured self-cleavage for this one? G4C G30A
stdout: 0.0414
